This section lists IC50 readings for PDE7B (Homo sapiens, UniProt Q9NP56).
Give bare numbers, in µM.

Cc1ccc([N+](=O)[O-])cc1S(=O)(=O)N(C)C [BRL50481, reference compound]; 18

# ---- query compound ----
Entry N#Cc1sc2sc(C#N)c(-c3ccco3)c2c1N [Compound 30] , IC50 reported as 12

---

# study_target: PDE7A (Homo sapiens, UniProt Q13946)
# Sequence (Q13946 whole entry): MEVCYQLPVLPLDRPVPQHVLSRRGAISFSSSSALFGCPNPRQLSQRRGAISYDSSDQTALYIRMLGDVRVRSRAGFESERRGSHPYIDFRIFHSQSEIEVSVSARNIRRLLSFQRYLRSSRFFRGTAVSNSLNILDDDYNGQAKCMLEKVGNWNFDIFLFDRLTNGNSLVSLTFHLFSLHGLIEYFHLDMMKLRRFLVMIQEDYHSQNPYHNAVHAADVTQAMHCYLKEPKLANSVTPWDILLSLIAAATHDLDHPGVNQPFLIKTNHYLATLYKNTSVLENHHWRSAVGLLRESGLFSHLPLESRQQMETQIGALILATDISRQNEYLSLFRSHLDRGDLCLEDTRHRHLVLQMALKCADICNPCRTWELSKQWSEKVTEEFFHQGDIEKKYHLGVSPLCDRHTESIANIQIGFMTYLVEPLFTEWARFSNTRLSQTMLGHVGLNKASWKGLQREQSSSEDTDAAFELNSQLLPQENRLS
# experiment_notes: 5FOA growth assay in fission yeast strain expressing PDE7A
# Type: cell-based
# Set-up: targets used in the assays are full-length proteins (as opposed to simply the catalytic domain); expressed in transfected cells; host or cells: Schizosaccharomyces pombe, PDE gene integrated in place of cgs2
# condition_notes: high throughput 5FOA growth screen
Binary call on Composite Z score, PDE7A: satisfied from 0.008 upward, not satisfied beneath that.

CCN(CC)c1nc(C)nc2sc(C(=O)Nc3cc(Cl)ccc3OC)c(C)c12; satisfied
CCN(CC)c1ncnc2sc(C(=O)N(C)C3CCCCC3)c(C)c12; not satisfied
CCNc1nc(SCC(=O)OCC)nc2sc3c(c12)CCC(C)C3 (stereo not drawn); satisfied
Cc1nc(N2CCC(C)CC2)c2c(C)c(C(=O)N3CCN(c4ccc(F)cc4)CC3)sc2n1; satisfied
COc1ccc(NC(=O)c2sc3nc(C)nc(N(C)c4ccc(C(C)C)cc4)c3c2C)c(OC)c1; satisfied

// inclusive: Composite Z score, PDE7A at least 0.008? input: CC(C)CC(Nc1ncnc2sc3c(c12)CCC3)C(=O)O (stereo not drawn)
not satisfied

// inclusive: Composite Z score, PDE7A at least 0.008? input: Cc1c(C(=O)NCCC2CCCCC2)sc2ncnc(N3CCCCC3C)c12 (stereo not drawn)
satisfied
